Below, IC50 values reported for UniProt:P04629 across several publications.

Consider the reported IC50 for these compounds:
{"columns": ["Compound", "IC50"],
 "data": [
  ["CNC(=O)c1ccc(-c2cc(OC3CCOCC3)c3c(C)n[nH]c3c2)cc1N1CCN(C(=O)OCC(F)(F)F)CC1", "18.1 nM"],
  ["COc1nc(N2CCN(C(=O)N3CCCC3)CC2)ccc1NC(=O)c1coc2c1C(=O)NC(C)(C)C2", "11.9 nM"],
  ["COc1ccc(COc2ccc(Cn3cnc4cc(N5CCN6CCC5CC6)cnc43)cc2OC)cn1", "470 nM"],
  ["NC(=O)c1ccc(-c2ccc3c(N)n[nH]c3c2)cc1N1CCN(c2ccccn2)CC1", "16.1 nM"],
  ["COCCN1C[C@@H](NC(=O)Nc2c(C(F)(F)F)nn(C)c2-c2ccccc2)[C@H](c2ccc(F)c(F)c2)C1", "100 to 1000 nM"]
]}

query: IC50 for `Cc1cnc2[nH]cc(C(=O)c3ccc(Nc4ccc(C5CC5)nc4)nc3F)c2c1` ?
result: < 10 nM

query: Ok, now `COc1ccc(Nc2ccc(Cc3c[nH]c4ncnc(OC)c34)c(F)n2)cn1`
result: < 100 nM

query: What do you have for `COCCN1C[C@@H](NC(=O)Nc2c(C)c(OCC(=O)O)nn2-c2ccccc2)[C@H](c2ccc(F)c(F)c2)C1` ?
result: < 100 nM

query: Now try `COCCN1C[C@@H](NC(=O)Nc2c(C)c(-c3ccc(=O)n(C)c3)nn2-c2ccccc2)[C@H](c2ccc(F)cc2)C1` .
result: < 100 nM

query: Same again, this time with `COc1cc(N2CCN(S(C)(=O)=O)CC2)ccc1NC(=O)c1coc2c1C(=O)NC(C)(C)C2`
result: 35.9 nM

query: Another compound to check: `COCCN1C[C@@H](NC(=O)Nc2c(Br)c(-c3ccccc3)nn2-c2ccccc2)[C@H](c2cc(F)cc(F)c2)C1`
result: < 100 nM

query: Note, next up: `COCCN1C[C@@H](NC(=O)Nc2c(C)c(OC[C@@H](C)O)nn2-c2ccccc2)[C@H](c2ccc(F)cc2)C1`
result: < 100 nM

----------
// cross-study collection: IC50 for UniProt P04629
Measured Metric: IC50 (nM)

Solved entries:
{"columns": ["Mol Smiles", "Target Or Test System", "Units Text", "IC50"],
 "data": [
  ["CN1CCc2occ(C(=O)Nc3ccc4ncccc4c3)c2C1=O", "UniProt P04629", "nM", 319],
  ["Cc1cc(NC(=O)c2coc3c2C(=O)N(C)CC3)no1", "UniProt P04629", "nM", 5080],
  ["COc1ccc(COc2ccc(Cn3cnc4cc(N5CCOCC5)ccc43)cc2OC)cn1", "UniProt P04629", "nM", 793]
]}

1. CNC(=O)c1ccc(-c2cc(O[C@H](C)C(F)(F)F)c3c(N)n[nH]c3c2)cc1N1CCN(CCC(C)(C)C)CC1
2. CNC(=O)c1ccc(-c2cc(O[C@@H](C)C(F)(F)F)c3c(N)n[nH]c3c2)cc1N1CCN(C2CCCC2)CC1
3. Fc1cc(F)cc(-c2ccc3[nH]nc(/C=C/c4ccccn4)c3c2)c1
4. NC(=O)c1ccc(-c2ccc3c(N)n[nH]c3c2)cc1N1CCN(CC(=O)N2CCCC2)CC1
5. Fc1ccc(Cc2ccc3[nH]nc(/C=C/c4ccccn4)c3c2)cc1
query: # ascending order, key=IC50 List labels; respect the requested ordering.
result: 2, 1, 5, 3, 4
